B1: library; numbered along this chain (parent)
chain: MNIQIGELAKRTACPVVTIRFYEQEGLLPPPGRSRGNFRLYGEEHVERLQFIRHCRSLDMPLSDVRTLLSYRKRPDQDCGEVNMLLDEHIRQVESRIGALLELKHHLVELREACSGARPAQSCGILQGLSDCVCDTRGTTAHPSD

Variants of: B1
assay.protocol: sfGFP reporter fluorescence (15 h) (µM FITC); higher = higher leak
condition.parameters: library round: Round 0; ligand: none

# mutations, sfGFP reporter fluorescence
measured = [
    ("V108W", 0.0583),
    ("S144A", 0.0586),
    ("N83L", 0.0585),
    ("E7G", 0.0588),
    ("E43F", 0.0585),
    ("D87A", 0.0596),
    ("Y22I", 0.0605),
    ("P30H", 0.0618),
    ("I3P", 0.0592),
    ("P31A", 0.0574),
    ("Y22E", 0.0616),
    ("L27F", 0.0673),
    ("L28E", 0.063),
]
